Test system: GfTNMT
Assay Name: N-alkylation substrate screen using GfTNMT (LC-MS)
Type: biochemical, Glaucium flavum
Set-up: key: −=no detectable quantities of product N-alkylated compound; Trace, +, ++, +++=increasing relative levels of product N-alkylated compound; Trace, +, ++, +++=increasing relative levels of product N-alkylated compound; Trace, +, ++, +++=increasing relative levels of product N-alkylated compound; Trace, +, ++, +++=increasing relative levels of product N-alkylated compound
Measurement Conditions: 25 μg protein, 1 mM substrate, 1 mM SAM, 60 mM HEPES pH 8, 16 hours at 37° C.; relative level of N-alkylated product by LC-MS
Measured Parameter: N-alkylation of substrate alkaloid compounds, Enzyme GfTNMT

Compound: COc1cc2c(cc1OC)CNCC2 [THQ2]
Study System: GfTNMT
Endpoint Result: +
//
Compound: NCCc1c[nH]c2ccccc12 [Tryptamine, tryptamine]
Study System: GfTNMT
Endpoint Result: Trace
//
Compound: COc1cc(CCN)cc(OC)c1OC [Mescaline, mescaline]
Study System: GfTNMT
Endpoint Result: −
//
Compound: CC(N)Cc1ccccc1 (stereo not shown) [Amphetamine, amphetamine, reference compound]
Study System: GfTNMT
Endpoint Result: Trace
//
Compound: NCCc1ccc(O)cc1 [Tyramine, tyramine]
Study System: GfTNMT
Endpoint Result: −

Input line: Returns the measured N-alkylation of substrate alkaloid compounds, Enzyme GfTNMT for the input compound. Input: CC(N)C(O)c1ccccc1 (stereo not shown) [Norephedrine, norephedrine]
Output line: −

Input line: Returns the measured N-alkylation of substrate alkaloid compounds, Enzyme GfTNMT for the input compound. Input: CC(C)NC[C@H](O)COc1cccc2ccccc12 (racemic) [Propanolol, propanolol, reference compound]
Output line: +++

====

Test system: PsRNMT
Assay Name: N-alkylation substrate screen using PsRNMT (LC-MS)
Format: biochemical, Papaver somniferum
Design: key: −=no detectable quantities of product N-alkylated compound; Trace, +, ++, +++=increasing relative levels of product N-alkylated compound; Trace, +, ++, +++=increasing relative levels of product N-alkylated compound; Trace, +, ++, +++=increasing relative levels of product N-alkylated compound; Trace, +, ++, +++=increasing relative levels of product N-alkylated compound
Measurement Conditions: 25 μg protein, 1 mM substrate, 1 mM SAM, 60 mM HEPES pH 8, 16 hours at 37° C.; relative level of N-alkylated product by LC-MS
Measured Parameter: N-alkylation of substrate alkaloid compounds, Enzyme PsRNMT

Example entries begin here.
Compound: COc1ccc2c3c([nH]c2c1)C(C)=NCC3 [Harmaline, harmaline]
Study System: PsRNMT
Endpoint Result: −
//
Compound: COc1ccc(C[C@H]2c3cc(O)c(OC)cc3CCN2C)cc1O [S-Reticuline, reticuline]
Study System: PsRNMT
Endpoint Result: +++
//
Compound: CC(C)NC[C@H](O)COc1cccc2ccccc12 (racemic) [Propanolol, propanolol, reference compound]
Study System: PsRNMT
Endpoint Result: +++
//
Compound: NCCc1ccc(O)cc1 [Tyramine, tyramine]
Study System: PsRNMT
Endpoint Result: −

Read the next record carefully.
Input line: Returns the measured N-alkylation of substrate alkaloid compounds, Enzyme PsRNMT for the input compound. Input: NCCc1c[nH]cn1 [Histamine, histamine]
Output line: −

====

Test system: EsNMT
Assay Name: N-alkylation substrate screen using EsNMT (LC-MS)
Type: biochemical, Ephedra sinica
Set-up: key: −=no detectable quantities of product N-alkylated compound; Trace, +, ++, +++=increasing relative levels of product N-alkylated compound; Trace, +, ++, +++=increasing relative levels of product N-alkylated compound; Trace, +, ++, +++=increasing relative levels of product N-alkylated compound; Trace, +, ++, +++=increasing relative levels of product N-alkylated compound
Measurement Conditions: 25 μg protein, 1 mM substrate, 1 mM SAM, 60 mM HEPES pH 8, 16 hours at 37° C.; relative level of N-alkylated product by LC-MS
Measured Parameter: N-alkylation of substrate alkaloid compounds, Enzyme EsNMT

Example entries begin here.
Compound: CC(C)(N)Cc1ccccc1 [Phentermine, phentermine, reference compound]
Endpoint Result: +
--
Compound: COc1ccc2c(c1)[nH]c1c(C)nccc12 [Harmine, harmine]
Endpoint Result: −
--
Compound: NCCS(=O)(=O)O [Taurine, taurine]
Endpoint Result: −
--
Compound: CNCC(O)c1ccc(O)cc1 (stereo not drawn) [Synephrine, synephrine]
Endpoint Result: +
--
Compound: COc1ccc2c(c1OC)C(=O)O[C@@H]2[C@H]1c2c(cc3c(c2OC)OCO3)CCN1C [Noscapine, noscapine, reference compound]
Endpoint Result: −

Read the next record carefully.
Input line: Item Nc1ncnc2nc[nH]c12 [Adenine, adenine] with EsNMT - N-alkylation of substrate alkaloid compounds, Enzyme EsNMT?
Output line: −
